src = patent US12624044B2

- assayedSystem: UniProtKB P51531
- assayExplanation: MSD SMARCA2 degradation in NCI-H1299 cell line (24 h)
- Type: cell-based
- Design: HC: NCI-H1299 cells treated with DMSO; host or cells: NCI-H1299
- settings: NCI-H1299 cells, read-out: SMARCA2 MSD H1299 degradation 24 h: External Abs-DC50
- Experimental: Example 32. MSD SMARCA2 Degradation in […] Cell Line Cell Culture: Cells were cultured in exponential growth phase. Compound Preparation and Treatment: NCI-H1299 cells were seeded into the 96-well plate at 4.0*10^4 cells per 100 ul per well. […] MSD Procedure: The MSD plate was coated with 40 ul cell lysate and incubated at 4° C. overnight. […] MSD plate was washed 3 times with 150 ul 1×TBST per well and 2×MSD reading buffer was added, 150 ul per well, and diluted from 4× with water. […]
reportedEndpoint: DC50

Would you please look over these solved cases?
Cn1c(=O)n(C2CCC(=O)NC2=O)c2ccc(CCCCCCCOc3ccc(CN4CCN(c5cc(-c6ccccc6O)nnc5N)CC4)cc3)cc21 (centres unmarked); > 1000 nM
Cn1c(=O)n(C2CCC(=O)NC2=O)c2ccc(CCCOCCN3CCN(Cc4ccc(-c5cc(-c6ccccc6O)nnc5N)cc4)CC3)cc21 (centres unmarked); > 1000 nM
Cc1ncsc1-c1ccc(CNC(=O)[C@@H]2C[C@@H](O)CN2C(=O)[C@@H](NC(=O)CCN2CCC(c3cnc(N4C5CCC4CN(c4cc(-c6ccccc6O)nnc4N)C5)nc3)CC2)C(C)(C)C)cc1; 100 to 500 nM
Cc1ncsc1-c1ccc(CNC(=O)[C@@H]2C[C@@H](O)CN2C(=O)[C@@H](NC(=O)COCCOCCOCCNC(=O)CCCCCCCCOc2ccc(N3C[C@H]4C[C@@H]3CN4/C=C/C(=O)c3ccccc3O)nc2)C(C)(C)C)cc1; > 1000 nM

Response field DC50 (UniProtKB P51531) for item Cn1c(=O)n(C2CCC(=O)NC2=O)c2ccc(CCCN3CCC(c4cnc(N5CCN(c6cc(-c7ccccc7O)nnc6N)CC5)nc4)CC3)cc21 (centres unmarked) : < 100 nM

====

Listed below: Dmax values for each entry.
- assayedSystem: SMARCA2 (Homo sapiens, UniProt P51531)
- Sequence (P51531 whole entry): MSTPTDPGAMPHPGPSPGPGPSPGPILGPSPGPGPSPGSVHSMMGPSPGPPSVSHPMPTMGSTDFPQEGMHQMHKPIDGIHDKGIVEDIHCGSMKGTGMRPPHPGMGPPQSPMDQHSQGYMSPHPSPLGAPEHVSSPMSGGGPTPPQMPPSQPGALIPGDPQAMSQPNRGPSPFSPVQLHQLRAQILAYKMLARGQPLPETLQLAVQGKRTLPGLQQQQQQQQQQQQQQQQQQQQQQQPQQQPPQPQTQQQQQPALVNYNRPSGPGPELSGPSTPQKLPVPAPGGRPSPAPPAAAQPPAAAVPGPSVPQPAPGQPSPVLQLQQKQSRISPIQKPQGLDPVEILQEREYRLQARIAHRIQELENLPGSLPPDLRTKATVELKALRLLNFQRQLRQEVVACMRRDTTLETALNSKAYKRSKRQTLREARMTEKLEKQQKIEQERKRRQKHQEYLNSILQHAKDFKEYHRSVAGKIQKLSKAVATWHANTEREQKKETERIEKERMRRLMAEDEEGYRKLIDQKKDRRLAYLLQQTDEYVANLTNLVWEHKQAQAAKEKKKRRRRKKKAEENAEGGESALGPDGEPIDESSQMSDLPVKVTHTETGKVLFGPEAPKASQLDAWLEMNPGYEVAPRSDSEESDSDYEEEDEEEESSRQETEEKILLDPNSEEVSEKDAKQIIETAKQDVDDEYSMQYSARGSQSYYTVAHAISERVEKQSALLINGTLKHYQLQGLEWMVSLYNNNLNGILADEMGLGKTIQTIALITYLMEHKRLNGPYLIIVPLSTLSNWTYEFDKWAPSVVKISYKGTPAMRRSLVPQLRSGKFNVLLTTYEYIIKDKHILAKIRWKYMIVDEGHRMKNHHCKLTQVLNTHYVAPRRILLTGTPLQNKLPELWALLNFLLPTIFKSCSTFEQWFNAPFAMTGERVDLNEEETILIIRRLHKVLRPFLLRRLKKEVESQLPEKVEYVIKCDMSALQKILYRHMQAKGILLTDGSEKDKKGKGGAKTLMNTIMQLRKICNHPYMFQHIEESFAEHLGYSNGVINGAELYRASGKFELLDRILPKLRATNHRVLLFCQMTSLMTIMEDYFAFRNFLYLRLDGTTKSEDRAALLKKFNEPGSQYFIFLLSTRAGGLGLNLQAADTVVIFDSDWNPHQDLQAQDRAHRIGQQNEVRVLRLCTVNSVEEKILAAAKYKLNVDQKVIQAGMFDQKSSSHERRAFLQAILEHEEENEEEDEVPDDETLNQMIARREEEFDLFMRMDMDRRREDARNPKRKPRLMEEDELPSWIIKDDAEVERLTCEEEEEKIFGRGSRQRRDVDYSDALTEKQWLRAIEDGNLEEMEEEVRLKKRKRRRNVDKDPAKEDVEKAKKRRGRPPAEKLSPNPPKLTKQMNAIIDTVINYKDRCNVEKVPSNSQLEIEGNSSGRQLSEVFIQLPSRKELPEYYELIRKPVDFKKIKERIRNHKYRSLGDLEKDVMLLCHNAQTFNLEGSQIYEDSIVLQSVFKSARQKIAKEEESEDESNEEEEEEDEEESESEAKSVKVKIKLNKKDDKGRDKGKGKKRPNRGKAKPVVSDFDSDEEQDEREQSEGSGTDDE
- assayExplanation: MSD SMARCA2 degradation in A549 cell line
- Format: cell-based
- settings: A549, A549 cells, 24 h

Please fill in: Dmax reported for Cc1ncsc1-c1ccc(CNC(=O)[C@@H]2C[C@@H](O)CN2C(=O)[C@@H](NC(=O)[C@H]2C[C@@H](N(C)Cc3cnc(N4C5CCC4CN(c4cc(-c6ccccc6O)nnc4N)C5)nc3)C2)C(C)(C)C)cc1 = 70 to 90%

Measured Dmax, Cc1ncsc1-c1ccc(CNC(=O)[C@@H]2C[C@@H](O)CN2C(=O)[C@@H](NC(=O)Cc2ccc(N3CCC(n4cc(-c5cc(-c6ccccc6O)nnc5N)cn4)CC3)cc2)C(C)(C)C)cc1 : < 50%

Note to self: Dmax recorded for Cc1ncsc1-c1ccc(CNC(=O)[C@@H]2C[C@@H](O)CN2C(=O)[C@@H](NC(=O)N2CCC3(CCC(c4cnc(N5C6CCC5CN(c5cc(-c7ccccc7O)nnc5N)C6)nc4)CC3)CC2)C(C)(C)C)cc1 was > 90%

In plain terms, Cc1ncsc1-c1ccc(CNC(=O)[C@@H]2C[C@@H](O)CN2C(=O)C(NC(=O)C2(F)CC2)C2CCC(N(C)CCCCCCCc3cnc(N4C5CCC4CN(c4cc(-c6ccccc6O)nnc4N)C5)nc3)CC2)cc1 (some centres unmarked) has a documented Dmax of < 50%

Notebook: Cn1c(=O)n(C2CCC(=O)NC2=O)c2cccc(CCCOC3CCN(Cc4ccc(C#Cc5cc(NC(=O)Nc6cc(F)ncc6CO)ccn5)cc4)CC3)c21 (centres unmarked) , Dmax read as < 50%
